# measured_target: Mitogen-activated protein kinase 14 (Homo sapiens, UniProt Q16539)
# Sequence (Q16539 whole entry): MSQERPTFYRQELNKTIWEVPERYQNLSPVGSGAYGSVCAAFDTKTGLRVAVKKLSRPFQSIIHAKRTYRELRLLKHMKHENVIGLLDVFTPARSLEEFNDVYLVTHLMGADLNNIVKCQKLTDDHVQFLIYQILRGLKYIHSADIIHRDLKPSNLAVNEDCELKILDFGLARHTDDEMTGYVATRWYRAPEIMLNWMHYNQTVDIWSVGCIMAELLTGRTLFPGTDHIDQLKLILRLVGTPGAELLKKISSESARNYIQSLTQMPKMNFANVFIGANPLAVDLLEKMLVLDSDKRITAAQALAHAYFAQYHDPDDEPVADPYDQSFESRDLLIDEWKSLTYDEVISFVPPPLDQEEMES
experimental_readout: IC50 (nM)
Enter your answer as a number in nM; do not include the unit.

compound | experimental_readout | units | test_result
CCCN1CCC(Oc2nccc(Nc3cc(NC(=O)c4cccc(N5CCOCC5)c4)ccc3C)n2)CC1 | IC50 | nM | 40
COc1cc2ncnc(Nc3cccc(Cl)c3)c2cc1OC [TYRPHOSTIN AG-1478] | IC50 | nM | 560
COc1cc2ncnc(Nc3cc(NC(=O)c4cccc(N5CCOCC5)c4)ccc3C)c2cc1OC | IC50 | nM | 10
COc1cc2ncnc(Nc3cc(NC(=O)c4cccc(N(C)C)c4)ccc3Cl)c2cc1OC | IC50 | nM | 40
Cc1ccc(NC(=O)c2ccnc(N3CCOCC3)c2)cc1Nc1ccnc(NCCCN2CCCC2)n1 | IC50 | nM | 50
COc1cc2ncnc(Nc3cc(NC(=O)c4ccnc(N5CCOCC5)c4)ccc3C)c2cc1OCCN(C)C | IC50 | nM | 30
COc1cc2ncnc(Nc3cc(NC(=O)c4ccnc(N5CCOCC5)c4)ccc3C)c2cc1OCCN1CCOCC1 | IC50 | nM | 20
Cc1ccc(NC(=O)c2ccnc(N3CCOCC3)c2)cc1Nc1cc(N2CCCN(C)CC2)ncn1 | IC50 | nM | 1220

Q) Which measured IC50 belongs to `Cc1ccc(NC(=O)c2ccnc(N3CCOCC3)c2)cc1Nc1ccncn1` , tested on Mitogen-activated protein kinase 14 (Homo sapiens, UniProt Q16539)?
A) 210

Q) // repeat for `COc1cc2ncnc(Nc3cc(NC(=O)c4ccnc(N5CCOCC5)c4)ccc3C)c2cc1OCCN1CCCCC1` and report
A) 50

Q) Let us now turn to `Cc1ccc(NC(=O)c2ccnc(N3CCOCC3)c2)cc1Nc1cc(NCCCN2CCCC2)ncn1`
A) 450
